assay-system: T1, human MSLN-hFc protein (Acro, Cat. No. MSN-H5253) (human, UniProt Q13421 296-580)
T1 construct: the method names the coated protein as human MSLN-hFc (Acro); also called human MSLN full-length protein
T1 sequence (Q13421 other isoform, or with tags, fused parts or gaps limits assumed): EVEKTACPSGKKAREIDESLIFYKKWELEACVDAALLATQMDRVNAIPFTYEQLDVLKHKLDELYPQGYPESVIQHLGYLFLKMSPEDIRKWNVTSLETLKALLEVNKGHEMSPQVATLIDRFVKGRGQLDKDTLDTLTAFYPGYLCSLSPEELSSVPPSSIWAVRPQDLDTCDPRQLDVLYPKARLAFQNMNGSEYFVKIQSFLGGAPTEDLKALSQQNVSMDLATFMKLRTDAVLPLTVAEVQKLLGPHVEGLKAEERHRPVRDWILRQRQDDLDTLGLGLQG
experiment-description: ELISA on coated antigen, antibody 0.001 nM
measurement-label: OD450 (OD450)
State just the number; it will be interpreted in OD450.

Recorded OD450 (binder F7.33.24 (scFv, not shown: small tags and cut ends, also called S009-F7.33.24 (parental variable regions, in the humanized-antibody ELISA)) scFv: QVQLQQPGTELVKPGASVKLSCKASGYTFTSYWMHWVKQRPGQGLEWIGNVNPSNGGSNYNEKFKNKATLTVDKSSSTADMQLNSLTSEDSAVYYCAPHYIGSRPGFAYWGQGTLVTVSGGGGGSGGGGSGGGGSDIVMTQSQKFMSTSVGDRVSVTCKASQNVGTNIAWYQQKPGQSPKALIYSASYRYSGVPDRFTGSGSGTDFTLTITNVQSEDLAEYFCQQYNSYPLTFGGGTKVEIK ): 0.26

Recorded OD450 (binder F7.33.24-H8 (scFv, not shown: small tags and cut ends, also called S009-F7.33.24 humanized antibody VH2 + VL2) scFv: EVQLVQSGAEVKKPGASVKVSCKASGYTFTSYWMHWVRQAPGQGLEWMGNVNPSNGGSNYNEKFKNRVTITVDKSASTAYMELSSLRSEDTAVYYCAPHYIGSRPGFAYWGQGTLVTVSSGGGGSGGGGSGGGGSDIVMTQTPLSLSVTPGQPASISCKASQNVGTNIAWYLQKPGQSPQALIYSASYRYSGVPDRFSGSGSGTDFTLKISRVEAEDVGVYYCQQYNSYPLTFGGGTKVEIK ): 0.05

Recorded OD450 (binder F7.33.24-H9 (scFv, not shown: small tags and cut ends, also called S009-F7.33.24 humanized antibody VH2 + VL3) scFv: EVQLVQSGAEVKKPGASVKVSCKASGYTFTSYWMHWVRQAPGQGLEWMGNVNPSNGGSNYNEKFKNRVTITVDKSASTAYMELSSLRSEDTAVYYCAPHYIGSRPGFAYWGQGTLVTVSSGGGGSGGGGSGGGGSDIVMTQTPLSLSVTPGQPASISCKASQNVGTNIAWYQQKPGQSPQALIYSASYRYSGVPDRFSGSGSGTDFTLKISRVEAEDVGVYYCQQYNSYPLTFGGGTKVEIK ): 0.04
